Values from patent US20220152024A1

# assay-protocol: Exposure (AUC, Cmax) of Compound 1 in the mouse, free and total drug
# condition: in vivo, po; Dose in Mouse 10 mg/kg
measure-name: Cmax (ng/mL)
# number only, unit ng/mL dropped from output

Exercise: Which Cmax reading was recorded for the compound Cc1nc2ccc(F)cc2n1-c1nc(N)c(F)c(Nc2ccc(C(F)(F)F)cc2)n1 ?
Key: 1100

---

# assay-protocol: Exposure (AUC, Cmax) of Compound 1 in the mouse, free and total drug
# condition: in vivo, po; Dose in Mouse 10 mg/kg
measure-name: AUC
Phrase the answer as number then unit, nothing more needed.

Exercise: For the compound Cc1nc2ccc(F)cc2n1-c1nc(N)c(F)c(Nc2ccc(C(F)(F)F)cc2)n1 [Compound 1] , what AUC is on record?
Key: 21000 ng·h/mL
